Assay: Genotoxicity in Salmonella typhimurium TA98 assessed as number of revertant at 10 ug by AMES test (reference value: 8 to 8.3)
Assay type: toxicity, Salmonella enterica subsp. enterica serovar Typhimurium
Settings: in vivo; dose 10 µg
endpoint-name: Activity

- Cc1cc(C)c(C)c(OCCCN2CCC(O)CC2)c1: 12
- Cc1cc(C)c(C)c(OCCN[C@@H]2CCCC[C@H]2O)c1 (racemic): 7.3
- Cc1cccc(C)c1OCCOCCNC1CCC(O)CC1.Cl (stereo not given): 8
- Cc1ccc(OCCCN2CCCC(O)C2)c(C)c1 (racemic): 6.3
- Cc1cc(C)c(C)c(OCCOCCN[C@H]2CCCC[C@@H]2O)c1.Cl (racemic): 7

###

System: Hoylesella loescheii
Experiment: Antimicrobial activity against Prevotella loescheii ATCC 15930 assessed as reduction in bacterial growth at 0.195 to 100 ug/ml by disk diffusion method
Assay type: organism-based, DSM 19665 = JCM 12249 = ATCC 15930
Details: in vivo, dose 0.195-100 µg/ml
endpoint-name: Activity

* Cc1ccc(OCCCCN[C@H](C)CO)c(C)c1 | Non-Toxic
* Cc1cc(C)c(OCCCN2CCCC(O)C2)c(C)c1.Cl (racemic) | Non-Toxic
* Cc1ccc(OCCOCCN[C@H](C)CO)c(C)c1 | Non-Toxic
* Cc1cc(C)c(C)c(OCCCN2CCC(O)CC2)c1 | Non-Toxic

###

Test: Genotoxicity in Salmonella typhimurium TA100 assessed as number of revertant at 10 ug by AMES test (reference value: 64.3 to 130.7)
Format: toxicity, Salmonella enterica subsp. enterica serovar Typhimurium
Conditions: in vivo; dose 10 µg
We use 90 as the dividing line for Activity: on or above the line is yes (1), below is no (0).

• Cc1cc(C)c(C)c(OCCN[C@@H]2CCCC[C@H]2O)c1 (racemic) = yes (1)
• Cc1cc(C)c(C)c(OCCCN2CCC(O)CC2)c1 = no (0)
• Cc1cc(C)c(C)c(OCCOCCN[C@H]2CCCC[C@@H]2O)c1.Cl (racemic) = no (0)
• Cc1cccc(C)c1OCCOCCNC1CCC(O)CC1.Cl (stereo not given) = yes (1)

###

Assay: Protection index, ratio of TD50 for toxicity in ip dosed mouse to ED50 for anticonvulsant activity in ip dosed mouse
Type: organism-based
Details: in vivo, read-out: PI
Item-by-item account of selectivity ratio
endpoint-name: selectivity ratio

- Cc1cc(C)c(C)c(OCCN[C@@H]2CCCC[C@H]2O)c1 (racemic): 5
- CC[C@@H](CO)NCCOCCOc1ccc(C)cc1C.Cl: 2.33
- Cc1cc(C)c(OCCCN2CCCC(O)C2)c(C)c1.Cl (racemic): 3.86
- Cc1cc(C)c(OCCCN[C@@H]2CCCC[C@H]2O)c(C)c1 (relative stereo): 2.9
